Biological target: Nuclear factor erythroid 2-related factor 2 (Homo sapiens) (UniProt Q16236)
Sequence (Q16236 whole entry): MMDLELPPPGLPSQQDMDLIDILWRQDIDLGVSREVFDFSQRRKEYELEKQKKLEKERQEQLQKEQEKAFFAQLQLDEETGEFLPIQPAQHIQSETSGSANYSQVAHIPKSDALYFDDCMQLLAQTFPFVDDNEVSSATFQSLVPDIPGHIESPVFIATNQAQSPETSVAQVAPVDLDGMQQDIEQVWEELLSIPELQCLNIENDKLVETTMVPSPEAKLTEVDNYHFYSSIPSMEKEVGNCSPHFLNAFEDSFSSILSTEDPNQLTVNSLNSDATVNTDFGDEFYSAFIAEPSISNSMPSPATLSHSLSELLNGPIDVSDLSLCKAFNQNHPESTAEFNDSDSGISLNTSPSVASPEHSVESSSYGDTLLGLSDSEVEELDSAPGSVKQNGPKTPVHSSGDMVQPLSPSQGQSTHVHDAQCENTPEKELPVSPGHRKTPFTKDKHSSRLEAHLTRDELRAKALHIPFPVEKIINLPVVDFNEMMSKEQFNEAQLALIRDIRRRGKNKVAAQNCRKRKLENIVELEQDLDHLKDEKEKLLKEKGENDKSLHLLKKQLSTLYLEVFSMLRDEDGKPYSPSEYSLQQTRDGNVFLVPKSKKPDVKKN
Experiment: Activation of Nrf2 in human HepG2-ARE-C8 cells assessed as induction of ARE-mediated luciferase activity at 0.1 uM after 24 hrs by luciferase reporter gene assay relative to control
Format: cell-based
observedProperty: Activity

(1) Fc1ccc(-c2nc(-c3ccc4nc[nH]c4c3)no2)cc1Cl
(2) COc1cc(OC)cc(-c2noc(-c3ccc(F)c(F)c3)n2)c1
(3) Fc1ccc(-c2nc(-c3ncccn3)no2)cc1F
Q. In a descending ranking, list each entry from above by its Activity, from the largest value down to the smallest. The response must list the labels following the requested ordering.
A. 1, 2, 3
